# Tested on: soybean (Glycine max)
# Protocol Description: Test C postemergence, soybean
# Format: in vivo
# Conditions: 125 g ai/ha Postemergence; 0 is no effect, 100 is complete control
Measured Plant response rating (0 to 100 scale), Soybean of individual entries
Give a plain numeric answer without units written out.

Please review the entries below; each comes with its answer.
Cc1cc(C)c(N2CCC(O)C2=O)cc1NS(=O)(=O)C(F)(F)F (centres unmarked) ... 80
Cc1cc(C)c(N2CCC(OCC3CC3)C2=O)cc1NS(=O)(=O)C(F)(F)F (centres unmarked) ... 70

Prompt line: Recall and state the measured Plant response rating (0 to 100 scale), Soybean for C=CCO/N=C1\CCN(c2cc(NS(=O)(=O)C(F)(F)F)c(C)cc2C)C1=O .
Response line: 100

Prompt line: Return reported Plant response rating (0 to 100 scale), Soybean. Input molecule: CCOC(=O)N(c1cc(N2CCC(OC3CC3)C2=O)c(C)cc1C)S(=O)(=O)C(F)(F)F (centres unmarked)
Response line: 80

Prompt line: Dear colleague, please send me the reported Plant response rating (0 to 100 scale), Soybean for CO/N=C1\CCN(c2cc(NS(=O)(=O)C(F)(F)F)c(C)cc2C)C1=O when you can.
Response line: 80

Prompt line: Answer with the recorded Plant response rating (0 to 100 scale), Soybean of Cc1c(N2CCC(OC3CC3)C2=O)cc(N(COC(=O)C(C)(C)C)S(=O)(=O)C(F)(F)F)c(C)c1F (centres unmarked) only.
Response line: 60

Prompt line: // Input: COC(=O)N(c1cc(N2CCC(OC3CC3)C2=O)c(C)cc1C)S(=O)(=O)C(F)(F)F (centres unmarked) . Output its Plant response rating (0 to 100 scale), Soybean only.
Response line: 60

Prompt line: Given Cc1cc(C)c(N(C(=O)OC(C)C)S(=O)(=O)C(F)(F)F)cc1N1CCC(OC2CC2)C1=O (centres unmarked) , respond with its Plant response rating (0 to 100 scale), Soybean.
Response line: 80

Prompt line: Using the record for C#CCO/N=C1\CCN(c2cc(NS(=O)(=O)C(F)(F)F)c(C)cc2C)C1=O , state its measured Plant response rating (0 to 100 scale), Soybean.
Response line: 100

====

# Tested on: blackgrass (Alopecurus myosuroides)
# Protocol Description: Test A preemergence, blackgrass
# Type: in vivo
# Conditions: 31 g ai/ha, 0 to 100 scale, 10 days
Outcome Measure: Plant response rating, Blackgrass
Quick one: just the number, no unit, thanks!

Here is how some compounds turned out for Plant response rating, Blackgrass.
Cc1cc(C)c(N2CCC(OC3CCC3)C2=O)cc1NS(=O)(=O)C(F)(F)F (stereo not drawn) [Compound 4] ... 20
Cc1cc(C)c(N2CCC(OC3CC3)C2=O)cc1NS(=O)(=O)C(F)(F)F (stereo not drawn) [Compound 3] ... 80
Cc1cc(C)c(N(COC(=O)C(C)(C)C)S(=O)(=O)C(F)(F)F)cc1N1CCC(OC2CC2)C1=O (stereo not drawn) [Compound 7] ... 30
Cc1cc(C)c(N(COC(=O)C(C)(C)C)S(=O)(=O)C(F)(F)F)cc1N1CCC(OC2CCCC2)C1=O (stereo not drawn) [Compound 5] ... 0
Cc1cc(C)c(N(COC(=O)C(C)(C)C)S(=O)(=O)C(F)(F)F)cc1N1CCC(OC2CCC2)C1=O (stereo not drawn) [Compound 8] ... 30

Prompt line: Identify the reported Plant response rating, Blackgrass for the following entry. Cc1cc(C)c(N2CCC(OC3CCCC3)C2=O)cc1NS(=O)(=O)C(F)(F)F (stereo not drawn) [Compound 6]
Response line: 50
